Origin of the recorded values: patent US20240317871A1

Target: T1, His-tagged human HVEM (human, UniProt Q92956 39-202, limits assumed)
T1 construct: Analyte of the BLI assay, 200 nM in PBS; not shown: His tag
T1 sequence (looked up): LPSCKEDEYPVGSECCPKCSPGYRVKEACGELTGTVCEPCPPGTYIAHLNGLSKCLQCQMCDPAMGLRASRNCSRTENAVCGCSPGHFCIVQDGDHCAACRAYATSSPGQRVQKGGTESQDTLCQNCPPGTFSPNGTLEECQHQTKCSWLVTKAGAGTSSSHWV
Assay: BLI OctetRed96, mAb captured, 200 nM His-HVEM
Exercise: state measured Kd for each of the binders provided.

Given the entry Ab_058 (H5S19-6A8A) (antibody, V domains shown, also called Ab_58) VH: EVQLVESGGGLVKPGGSLKLSCAASGFTFNIYTMSWVRQSPEMRLEWVAEISSGGSHTYYPDTVTGRFTISRDNAKNTLYLEMSSLRSEDTAIYYCARGGSLFDYWGQGTTLTVSS VL: DVQITQSPSYLAASPGETITINCRTSKNISKYLAWYQEKPGKTNKLLIYSGSTLQSGIPSRFSGSGSGTDFTLTISSLEPEDFVMYHCQQHNEYPWTFGGGTKLEIK , report its measured Kd.
2.67 nM

Can you share its Kd? I mean this binder: Ab_078 (H5S20-45A34A) (antibody, V domains shown, also called Ab_78) VH: EVQLQQSGAELVRSGASVKLSCAASGFNIKDYYMHWVKQRPEQGLEWIGWIDPENGDTEFAPKFQGKATLTADTSSNTAYLQLSSLTSEDTAVYYCNTRTLGYWGQGTLVTVSA VL: QIVLTQSPALMSASPGEKVTMTCTASSSVSYMYWYQQKPRSSPKPWIYLTSNLASGVPARFSGSGSGTSYSLTISSMEAEDAATYYCQQWSSNPLTFGAGTKLELR
4.95 nM
